Consider the following compounds; for each one, report its AUC.
assay: AUC (0 to 8 hrs) in male Sprague-Dawley rat at 0.1 mg/kg, po measured upto 8 hrs by LC-MS/MS analysis; assay type: ADME, organism-based; details: in vivo
Give just the numeric value; ng·h/mL need not be written.

Write down AUC measured for item "CCc1oc2cccc(I)c2c1C(=O)c1cc(I)c(O)c(I)c1"
1489

Given the compound "O=C(O)c1ccc2nc(-c3cc(Cl)cc(Cl)c3)oc2c1" , write its reported AUC.
1500

Give the value of AUC reported for the following: "CCc1oc2cccc(Br)c2c1C(=O)c1cc(I)c(O)c(I)c1"
2476

Query AUC for "CCc1oc2cccc(Cl)c2c1C(=O)c1cc(I)c(O)c(I)c1"
2524

Report AUC, nothing else, for this compound: "CCc1oc2cccc(C)c2c1C(=O)c1cc(I)c(O)c(I)c1"
1918

// Input: "CCc1oc2c(Cl)ccc(Cl)c2c1C(=O)c1cc(I)c(O)c(I)c1" . Output its AUC only.
350

====

Could you please report measured Cmax for the items listed next?
assay: Cmax in male Sprague-Dawley rat at 0.1 mg/kg, po measured upto 8 hrs by LC-MS/MS analysis; conditions: in vivo

Please look at this compound and report its Cmax: "CCc1oc2cccc(Br)c2c1C(=O)c1cc(I)c(O)c(I)c1"
390 ng/mL

Return the recorded Cmax value; entry: "O=C(O)c1ccc2nc(-c3cc(Cl)cc(Cl)c3)oc2c1"
235 ng/mL

Quote Cmax reported for "CCc1oc2c(Cl)ccc(Cl)c2c1C(=O)c1cc(I)c(O)c(I)c1" please.
77 ng/mL

State its Cmax: "CCc1oc2cccc(Cl)c2c1C(=O)c1cc(I)c(O)c(I)c1"
395 ng/mL

For the compound "CCc1oc2cccc(I)c2c1C(=O)c1cc(I)c(O)c(I)c1" , give its measured Cmax value.
240 ng/mL

Given "CCc1oc2cccc(C)c2c1C(=O)c1cc(I)c(O)c(I)c1" , respond with its Cmax.
303 ng/mL

====

assay: Total clearance in male Sprague-Dawley rat at 0.1 mg/kg, iv measured upto 8 hrs by LC-MS/MS analysis; type: ADME, organism-based; details: in vivo
Use 0.4 mL/min/kg as the dividing line for CL, with the line itself on the Criterion met side and lower values as Criterion not met.

Dear colleague, could you confirm whether "O=C(O)c1ccc2nc(-c3cc(Cl)cc(Cl)c3)oc2c1" has CL at or above 0.4 mL/min/kg?
Criterion not met

Quick check, CL >= 0.4 mL/min/kg? "CCc1oc2cccc(C)c2c1C(=O)c1cc(I)c(O)c(I)c1"
Criterion met

Does the compound "CCc1oc2c(Cl)ccc(Cl)c2c1C(=O)c1cc(I)c(O)c(I)c1" have recorded CL that is 0.4 mL/min/kg or more?
Criterion met

Kindly determine if CL recorded for "CCc1oc2cccc(Cl)c2c1C(=O)c1cc(I)c(O)c(I)c1" is above or exactly 0.4 mL/min/kg.
Criterion not met

Does the reported CL for "CCc1oc2cccc(Br)c2c1C(=O)c1cc(I)c(O)c(I)c1" fall at or above the 0.4 mL/min/kg mark?
Criterion not met

====

experiment: AUC (0 to 8 hrs) in male Sprague-Dawley rat at 0.1 mg/kg, iv measured upto 8 hrs by LC-MS/MS analysis; assay type: ADME, organism-based; conditions: in vivo
measurementType: AUC (ng·h/mL)
Write the value in ng·h/mL as a bare number.

Provide one value: measured AUC of "CCc1oc2cccc(Br)c2c1C(=O)c1cc(I)c(O)c(I)c1"
3708

Give a short answer stating reported AUC for "CCc1oc2cccc(C)c2c1C(=O)c1cc(I)c(O)c(I)c1" .
3102

Answer with the recorded AUC for the molecule listed here: "O=C(O)c1ccc2nc(-c3cc(Cl)cc(Cl)c3)oc2c1"
2363

State its AUC for this molecule: "CCc1oc2cccc(I)c2c1C(=O)c1cc(I)c(O)c(I)c1"
2961

# return recorded AUC for input "CCc1oc2cccc(Cl)c2c1C(=O)c1cc(I)c(O)c(I)c1"
3726

Provide only the value of recorded AUC for "CCc1oc2c(Cl)ccc(Cl)c2c1C(=O)c1cc(I)c(O)c(I)c1"
1746
